target: CYP3A4 (Homo sapiens, UniProt P08684); assay: Inhibition of recombinant human CYP3A4 expressed in insect cells at 100 uM using DBOMF as substrate pretreated for 10 mins followed by substrate addition measured every minute for 15 mins in presence of NADP+ by fluorescence assay relative to control; type: ADME; settings: probe DBOMF
Sequence (P08684 whole entry): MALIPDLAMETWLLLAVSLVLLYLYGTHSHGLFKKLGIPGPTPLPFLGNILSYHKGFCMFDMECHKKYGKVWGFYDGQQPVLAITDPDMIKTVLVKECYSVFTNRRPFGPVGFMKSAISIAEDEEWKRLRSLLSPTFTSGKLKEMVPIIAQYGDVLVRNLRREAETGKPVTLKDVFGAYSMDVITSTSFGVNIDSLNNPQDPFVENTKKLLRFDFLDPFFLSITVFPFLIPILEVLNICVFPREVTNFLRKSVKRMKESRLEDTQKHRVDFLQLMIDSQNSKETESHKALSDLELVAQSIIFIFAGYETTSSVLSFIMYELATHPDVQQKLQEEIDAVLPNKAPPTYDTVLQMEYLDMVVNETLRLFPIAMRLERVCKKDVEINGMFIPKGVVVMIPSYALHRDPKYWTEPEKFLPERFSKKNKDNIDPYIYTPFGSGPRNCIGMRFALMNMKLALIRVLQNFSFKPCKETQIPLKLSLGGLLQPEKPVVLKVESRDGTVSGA
Value Kind: inhibition at 0.25 h, 100 µM (%)

COc1ccc(CNc2c3c(nc4ccccc24)CCCC3)cc1OC
90

a = COc1ccc(CNc2c3c(nc4cc(Cl)ccc24)CCCC3)cc1OC
b = Nc1c2c(nc3ccccc13)CCCC2
### Prompt Parameter metric = inhibition at 0.25 h, 100 µM. Return the lower-valued option from a and b . Your choice should be expressed through its label.
### Response b

* * *

biological target: Cytochrome P450 1A2 (Homo sapiens); experiment: Inhibition of recombinant human CYP1A2 expressed in insect cells using EOMCC as substrate pretreated for 10 mins followed by substrate addition measured every minute for 15 mins in presence of NADP+ by fluorescence assay
Value Kind: IC50 (µM)

Nc1c2c(nc3ccccc13)CCCC2 [TACRINE]
1.5
COc1ccc(CNc2c3c(nc4cc(Cl)ccc24)CCCC3)cc1OC
8.5

A = Clc1ccc2c(NCc3ccccn3)c3c(nc2c1)CCCC3
B = COc1ccc(CNc2c3c(nc4ccccc24)CCCC3)cc1OC
C = COc1ccc(CCNc2c3c(nc4cc(Cl)ccc24)CCCC3)cc1OC
### Prompt Arrange the 3 molecules by rising IC50, starting with the smallest. Answer with the labels in sequence, matching the requested order.
### Response A, C, B

* * *

biological target: CYP3A4 (Homo sapiens); assay: Inhibition of recombinant human CYP3A4 expressed in insect cells at >= 1 uM using DBOMF as substrate pretreated for 10 mins followed by substrate addition measured every minute for 15 mins in presence of NADP+ by fluorescence assay relative to control; conditions: probe DBOMF
Value Kind: inhibition at 0.25 h

### Prompt // lookup inhibition at 0.25 h for CC(=O)N1CCN(c2ccc(OCC3COC(Cn4ccnc4)(c4ccc(Cl)cc4Cl)O3)cc2)CC1 (stereo unspecified) [KETOCONAZOLE]
### Response > 85%

* * *

Target: CYP1A2 (Homo sapiens)
Sequence (P05177 whole entry): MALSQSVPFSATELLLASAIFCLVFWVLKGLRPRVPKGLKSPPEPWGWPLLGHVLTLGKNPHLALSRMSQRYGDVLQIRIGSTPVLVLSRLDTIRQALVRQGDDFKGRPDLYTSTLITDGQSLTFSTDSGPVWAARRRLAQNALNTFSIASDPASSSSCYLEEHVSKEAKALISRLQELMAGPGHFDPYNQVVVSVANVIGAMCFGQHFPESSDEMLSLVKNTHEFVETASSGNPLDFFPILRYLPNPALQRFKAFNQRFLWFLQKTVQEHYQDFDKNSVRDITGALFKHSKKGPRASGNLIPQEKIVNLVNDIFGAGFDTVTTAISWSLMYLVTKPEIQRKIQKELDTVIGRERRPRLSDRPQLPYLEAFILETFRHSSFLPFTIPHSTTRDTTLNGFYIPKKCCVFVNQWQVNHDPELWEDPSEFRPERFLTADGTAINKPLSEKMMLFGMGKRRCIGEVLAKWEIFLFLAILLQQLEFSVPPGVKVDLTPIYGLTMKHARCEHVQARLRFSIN
Assay: Inhibition of recombinant human CYP1A2 expressed in insect cells at 10 uM using EOMCC as substrate pretreated for 10 mins followed by substrate addition measured every minute for 15 mins in presence of NADP+ by fluorescence assay relative to control
Details: probe EOMCC
Value Kind: inhibition at 0.25 h, 10 µM (%)
# unit: % | format: bare number

### Prompt Please report the recorded inhibition at 0.25 h, 10 µM for `Nc1c2c(nc3ccccc13)CCCC2` .
### Response 75
